System: 485176-168-R4-J1-PDC complex spheroid growth;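 further: spheroids exposed to compounds for seven days before readout; luminescence viability expressed relative to DMSO vehicle wells set as 100%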
Experiment: Anticancer human tumor 485176-168-R4-J1-PDC patient-derived pancreatic adenocarcinoma cell line growth inhibition [RAS]
Settings: second compound 1 µM; first compound 0.01 µM; stronger effect = lower value
# key: entry, value: viability, T/C
The reply should contain only the number, in %.

Sample records with viability, T/C:
Molecule	viability, T/C / %
CCN1CCN(Cc2ccc(Nc3ncc(F)c(-c4cc(F)c5nc(C)n(C(C)C)c5c4)n3)nc2)CC1 + C#Cc1c(F)ccc2cc(O)cc(-c3ncc4c(N5CC6CCC(C5)N6)nc(OCC56CCCN5CC(F)C6)nc4c3F)c12	101
O=C(c1ccc(F)c(F)c1Nc1ccc(I)cc1F)N1CC(O)([C@@H]2CCCCN2)C1 + C=CC(=O)N1CCN(c2nc(OCC3CCCN3C)nc3c(F)c(-c4nc(N)cc(C)c4C(F)(F)F)c(Cl)cc23)C(C)C1	72.9
O=C(c1ccc(F)c(F)c1Nc1ccc(I)cc1F)N1CC(O)([C@@H]2CCCCN2)C1 + C#Cc1c(F)ccc2cc(O)cc(-c3ncc4c(N5CC6CCC(C5)N6)nc(OCC56CCCN5CC(F)C6)nc4c3F)c12	77.7

**Query** Which viability, T/C is reported for this molecule? Nc1ccn(C2OC(CO)C(O)C2(F)F)c(=O)n1 (stereo not given) + C#Cc1c(F)ccc2cc(O)cc(-c3ncc4c(N5CC6CCC(C5)N6)nc(OCC56CCCN5CC(F)C6)nc4c3F)c12
**Result** 84.9

**Query** Reported viability, T/C for Nc1ccn(C2OC(CO)C(O)C2(F)F)c(=O)n1 (stereo not given) + C=CC(=O)N1CCN(c2nc(OCC3CCCN3C)nc3c(F)c(-c4nc(N)cc(C)c4C(F)(F)F)c(Cl)cc23)C(C)C1 : what is it?
**Result** 85.2

Taken from PubChem BioAssay AID2060906.
